B1: MYBL2 (parent)
chain: IAKHLKGRLGKQCRERWHNHLNPE

Variants of: B1
Assay: protein stability index of a GFP-peptide fusion (GPS, HEK-293T) (PSI 1-6); higher = more stable;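 also: lentivirally expressed fusions sorted by FACS into six bins by GFP to DsRed ratio, PSI derived from sequencing read proportions per bin multiplied by bin number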
Conditions: c terminus: a fixed tail appended
measured parameter: protein stability index
Respond with the number and no other words.

Answered examples (5):
H20R
1.21
A2Y
1.76
W17N
2.8
Q12C
2.53
C13K
2.34

QUERY: Record request: protein stability index value, item `W17S`
RESULT: 2.53

QUERY: For `N19Y` then?
RESULT: 3.59

QUERY: For `K3R` then?
RESULT: 2.03

QUERY: For `L5D` then?
RESULT: 2.7

QUERY: For `I1T` then?
RESULT: 2.64

QUERY: For `I1Y` then?
RESULT: 1.56
